# Target Or Test System: T1, Mutant Human HTT Exon 1 48Q (GST) (human)
# T1 construct: recombinant His- and GST-tagged fusion; also called HTT Exon 1 Q48; 48Q HTT Exon-1
# T1 sequence (chain, as listed by the source mutant limits assumed): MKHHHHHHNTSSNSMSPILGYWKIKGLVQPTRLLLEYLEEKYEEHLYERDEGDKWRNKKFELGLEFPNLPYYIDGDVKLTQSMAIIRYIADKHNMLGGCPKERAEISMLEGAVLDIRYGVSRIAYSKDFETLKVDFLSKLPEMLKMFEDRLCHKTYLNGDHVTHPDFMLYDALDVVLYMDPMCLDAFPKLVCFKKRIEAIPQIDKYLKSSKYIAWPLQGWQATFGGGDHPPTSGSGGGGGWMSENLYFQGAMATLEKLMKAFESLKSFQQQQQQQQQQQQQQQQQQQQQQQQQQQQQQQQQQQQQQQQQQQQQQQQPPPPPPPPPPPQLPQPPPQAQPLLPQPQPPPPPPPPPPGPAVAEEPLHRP
# Assay: HTT sandwich ELISA, average of repeats

Binder	EC50, nM
ATL_0005567 (antibody, V domains shown, human IgG1; also called ATL_5567; ATL5567) VH: EVQLVESGGGLVKPGGSLRLSCAASGFTFNKAWMNWVRQAPGKGLEWVGRIKSGIDGGTTDYAAPVQGRFTISRDDSKNTVYLQMNSLNTEDTAVYYCIPPPYYYYYGLDVWGQGTTVTVSS VL: QSALTQPASVSGSPGQSITISCTGTSSDIGSYNLVSWYQQHPGNAPKPLIYEGSKRPSGVSARFSGSKSGNTASLTISGLQPEDEADYYCSSYAGFSTLVFGGGTKVTVL	6.39
ATL_0005895 (antibody, V domains shown, human IgG1; also called ATL_5895; ATL5895) VH: EVQLVESGGGLVKPGGSLRLSCAASGFTFNKAWMSWVRQAPGKGLEWVGRIKSGIDAGTTDYAAPVKGRFTISRDDSKNTLYLQMNSLKTEDTAVYYCIPPPYYYYYGLDVWGQGTTVTVSS VL: QSALTQPRSVSGSPGQSVTISCTGTSSDVGSYNLVSWYQQHPGKAPKLMIYEVNKRPSGVPDRFSGSKSGATASLTISGLQAEDEADYYCGSYAGTANVFGTGTKVTVL	2.08
ATL_0005059/NI-302.8F1 (antibody, V domains shown, also called ATL_5059; CA_0000274) VH: EVQLVESGGGLVKPGGSLTISCAASGFTFSNAWMNWVRQAPGKGLEWVGHIRTQAEGGTSDYAAPVKGRFTISRDDSKNTLYLQMNSLKTEDTAVYYCIPPPYYYYYGLDVWGQGTTVTVSS VL: QSALTQPASVSGSPGQSITISCTGASSDVGTYDLVSWYQQHPGKAPKLIIYEVNKRPSGVSYRFSASKSANTASLTISGLQAEDEAEYYCCSYAGYSTVFGGGTKLTVL	17.3
ATL_0005901 (antibody, V domains shown, human IgG1; also called ATL_5901; ATL5901) VH: EVQLVESGGGLVKPGGSLRLSCAASGFTFNKAWMSWVRQAPGKGLEWVGRIKSGIDAGTTDYAAPVKGRFTISRDDSKATLYLQMNSLKTEDTAVYYCIPPPYYYYYGLDVWGQGTTVTVSS VL: QSALTQPASVSGSPGQSITISCTGTSSDVGGYKLVSWYQQHPGRAPKLMIYEVSKRPSGVSSRFSGSKSGSTASLTISGLQAEDEADYYCSSYAGSSVVFGGGTKLTVL	2.4
